measured.on: yeast HSP90 (Saccharomyces cerevisiae, UniProt P02829)
Construct: made in house; host or cells: E. coli
Sequence (P02829 whole entry, looked up): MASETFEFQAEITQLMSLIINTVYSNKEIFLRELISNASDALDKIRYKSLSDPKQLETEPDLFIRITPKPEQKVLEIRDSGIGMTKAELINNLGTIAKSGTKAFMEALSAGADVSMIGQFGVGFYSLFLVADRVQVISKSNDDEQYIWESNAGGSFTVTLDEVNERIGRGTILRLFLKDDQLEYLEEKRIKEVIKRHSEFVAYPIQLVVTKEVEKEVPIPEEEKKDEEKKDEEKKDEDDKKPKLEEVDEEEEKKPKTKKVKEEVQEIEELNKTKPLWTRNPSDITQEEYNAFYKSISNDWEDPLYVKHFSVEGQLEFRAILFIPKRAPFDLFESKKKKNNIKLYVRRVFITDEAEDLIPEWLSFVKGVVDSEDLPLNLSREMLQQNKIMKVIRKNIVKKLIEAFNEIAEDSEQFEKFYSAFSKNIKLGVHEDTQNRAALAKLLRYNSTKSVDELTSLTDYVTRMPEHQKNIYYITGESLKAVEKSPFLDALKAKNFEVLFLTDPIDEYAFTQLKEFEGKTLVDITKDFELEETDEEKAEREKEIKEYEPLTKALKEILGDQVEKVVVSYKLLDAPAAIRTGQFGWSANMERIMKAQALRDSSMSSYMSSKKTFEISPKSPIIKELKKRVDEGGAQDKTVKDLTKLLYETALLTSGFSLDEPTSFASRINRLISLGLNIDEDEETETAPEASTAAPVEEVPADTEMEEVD
assay.notes: Malachite green HSP90 ATPase assay
Type: biochemical
condition.label: activity class; read-out: Hsp90 IC50
pIC50: −log10 of the molar value.
endpoint.name: pIC50

Record excerpt, results attached:
compound	measured.on	pIC50
Cc1[nH]nc(-c2cc(Cl)c(O)cc2O)c1-c1ccccc1 [Example 78]	yeast HSP90 (Saccharomyces cerevisiae, UniProt P02829)	> 5.00
COc1ccc(-c2c[nH]nc2-c2cc(Cl)c(O)cc2O)cc1OC	yeast HSP90 (Saccharomyces cerevisiae, UniProt P02829)	> 5.00
Cc1[nH]nc(-c2cccc(Cl)c2Cl)c1-c1ccc2c(c1)OCCO2	yeast HSP90 (Saccharomyces cerevisiae, UniProt P02829)	< 5.00
CCc1cc(-c2n[nH]c(C)c2-c2nc3ccccc3s2)c(O)cc1OCC(=O)NN	yeast HSP90 (Saccharomyces cerevisiae, UniProt P02829)	< 5.00
Cc1[nH]nc(-c2ccc(C(=O)O)cc2)c1-c1ccc2c(c1)OCCO2	yeast HSP90 (Saccharomyces cerevisiae, UniProt P02829)	< 5.00
CCOC(=O)c1cccc(-c2n[nH]c(C)c2-c2ccc3c(c2)OCCO3)c1	yeast HSP90 (Saccharomyces cerevisiae, UniProt P02829)	< 5.00
CCc1cc(-c2n[nH]cc2-c2nc(C)cs2)c(O)cc1OC	yeast HSP90 (Saccharomyces cerevisiae, UniProt P02829)	< 5.00
CCc1cc(-c2n[nH]cc2-c2ncc(C)s2)c(O)cc1O	yeast HSP90 (Saccharomyces cerevisiae, UniProt P02829)	4.00 to 5.00
CCc1cc(-c2n[nH]cc2-c2ccc3c(c2)OCCO3)c(O)cc1O	yeast HSP90 (Saccharomyces cerevisiae, UniProt P02829)	> 5.00
CCc1cc(-c2n[nH]c(C(F)(F)F)c2-c2ccccc2)c(O)cc1O	yeast HSP90 (Saccharomyces cerevisiae, UniProt P02829)	4.00 to 5.00

Using the record for COc1ccc(-c2c(C)n[nH]c2-c2cc(C)nc(N)n2)cc1 , report its pIC50. < 5.00

Next compound: N#CCCCOc1ccccc1-c1c[nH]nc1-c1cc(Cl)c(O)cc1O > 5.00

Next compound: N#CCCCOc1cccc(-c2c[nH]nc2-c2cc(Cl)c(O)cc2O)c1 > 5.00

---

# reported IC50; entries follow
measured.on: yeast HSP90 (Saccharomyces cerevisiae, UniProt P02829)
Construct: made in house; host or cells: E. coli
assay.notes: Malachite green HSP90 ATPase assay
Type: biochemical
condition.label: activity range, ATPase assay; read-out: ATPase IC50

Record excerpt, results attached:
compound	value
NC(=O)c1ccc(-c2c[nH]nc2-c2cc(Cl)c(O)cc2O)cc1 [Example 181]	< 50 µM
Oc1cc(O)c(-c2n[nH]cc2-c2ccncc2)cc1Cl [Example 175]	< 50 µM
Cc1c(-c2ccccc2)c(-c2cc(Cl)c(O)cc2O)nn1C [Example 164]	> 50 µM
Oc1cc(O)c(-c2n[nH]cc2-c2ccc3c(c2)CCO3)cc1Cl [Example 173]	< 50 µM

// next entry
Provide the documented IC50 with yeast HSP90 (Saccharomyces cerevisiae, UniProt P02829) as the system for OCCn1cc(-c2ccc(Br)cc2)c(-c2cc(Cl)c(O)cc2O)n1 [Example 166] > 50 µM
